Data credit: ChEMBL document CHEMBL5352428

Assay Target: UniProt P0A749
Sequence (P0A749 whole entry): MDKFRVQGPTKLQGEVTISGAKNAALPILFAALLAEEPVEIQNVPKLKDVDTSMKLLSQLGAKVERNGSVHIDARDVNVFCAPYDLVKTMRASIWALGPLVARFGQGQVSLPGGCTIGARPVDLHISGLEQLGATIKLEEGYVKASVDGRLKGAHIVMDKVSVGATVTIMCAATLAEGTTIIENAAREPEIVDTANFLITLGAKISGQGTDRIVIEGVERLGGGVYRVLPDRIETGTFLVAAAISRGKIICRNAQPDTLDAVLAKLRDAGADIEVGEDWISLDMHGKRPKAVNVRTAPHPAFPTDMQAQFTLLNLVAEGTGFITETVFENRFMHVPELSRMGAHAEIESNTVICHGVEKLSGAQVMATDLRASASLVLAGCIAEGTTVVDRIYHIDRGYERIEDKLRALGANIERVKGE
Protocol Notes: Inhibition of recombinant Escherichia coli MurA expressed in Escherichia coli NiCo21 assessed as residual activity using UNAG and PEP as substrate at 500 uM preincubated for 30 mins in presence of UNAG followed by PEP substrate addition and measured after 15 mins by malachite green based colorimetric assay
Assay Context: time 45.0 min
Measurement Type: Activity

O=C(O)C1CCCN(C(=O)CCl)C1 (centres undefined)
75%
O=C(CCl)Nc1cccc2ccccc12
81%
O=C(CCl)Nc1ccc(C2CCCCC2)cc1
54%

Exam item: May I ask what Activity has been recorded for O=C(CCl)NC12CC3CC(CC(C3)C1)C2 ?
Marked response: 77%

Exam item: May I ask what Activity has been recorded for Cc1cc(NC(=O)CCl)on1 ?
Marked response: 71%

Exam item: May I ask what Activity has been recorded for CC1CCCN(C(=O)CCl)C1 (centres undefined) ?
Marked response: 80%

Exam item: May I ask what Activity has been recorded for CCCCOc1ccc(NC(=O)CCl)cc1 ?
Marked response: 100%

Exam item: May I ask what Activity has been recorded for O=C(CCl)N1CCN(c2ccccc2)CC1 ?
Marked response: 90%

Exam item: May I ask what Activity has been recorded for O=C(CCl)N1CCN(Cc2ccc3c(c2)OCO3)CC1 ?
Marked response: 99%

Exam item: May I ask what Activity has been recorded for O=C(CCl)NC1CCC2CCCCC2C1 (centres undefined) ?
Marked response: 79%

Exam item: May I ask what Activity has been recorded for O=C(CCl)Nc1ccc(-c2ncco2)cc1 ?
Marked response: 71%

Exam item: May I ask what Activity has been recorded for CCOC(=O)C1CCCN(C(=O)CCl)C1 (centres undefined) ?
Marked response: 100%

Exam item: May I ask what Activity has been recorded for COc1cc(NC(=O)CCl)cc(OC)c1OC ?
Marked response: 92%

Exam item: May I ask what Activity has been recorded for O=C(CCl)N1CCN(CC(=O)N2CCCCC2)CC1 ?
Marked response: 81%
